FYI, the data here is from patent US20230263822A1.

Test: Tolerability in Sprague-Dawley rats: body weight and organ weight (Example 35)
Format: in vivo
Conditions: 50 mg/kg s.c. twice per week for 6 weeks, vs saline control, normalized to body weight
recorded.endpoint: Percent change in organ weight: Spleen

A selection of reference data follows.
[[record]]
substance = "417003 (antisense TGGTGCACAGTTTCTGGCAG; 2-13-5 gapmer chemistry, further chemistry not given here) [compound 417003]"
recorded_endpoint = "Percent change in organ weight: Spleen"
result = "+522%"

[[record]]
substance = "416864 (antisense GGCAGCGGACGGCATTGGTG; 5-10-5 gapmer, further chemistry not given here) [compound 416864]"
recorded_endpoint = "Percent change in organ weight: Spleen"
result = "+204%"


Problem: I'd like to know its Percent change in organ weight: Spleen. The substance in question is 416892 (antisense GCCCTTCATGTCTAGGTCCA; 3-14-3 chimeric gapmer, further chemistry not given here) [compound 416892]
Result: +151%

* * *

What percent inhibition of human Factor 11 mRNA relative to untreated control cells was measured for each of the following?
Test system: human Factor 11 mRNA
Experiment: Dose-dependent inhibition of human Factor 11 in HepG2 cells, lipofectin 2.34-75 nM (Example 5)
Assay type: cell-based
Conditions: 9.375 nM, ~16 hours
One number for each entry, in %.

A selection of reference data follows.
[[record]]
substance = "416892 (antisense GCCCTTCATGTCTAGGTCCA; 3-14-3 chimeric gapmer, further chemistry not given here) [compound 416892]"
units_of_measure = "%"
result = 49

[[record]]
substance = "416864 (antisense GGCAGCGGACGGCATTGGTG; 5-10-5 gapmer, further chemistry not given here) [compound 416864]"
units_of_measure = "%"
result = 42

[[record]]
substance = "416825 (antisense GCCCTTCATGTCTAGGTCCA; 5-10-5 gapmer, further chemistry not given here) [compound 416825]"
units_of_measure = "%"
result = 39

[[record]]
substance = "416925 (antisense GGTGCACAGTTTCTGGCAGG; 3-14-3 gapmer chemistry, further chemistry not given here) [compound 416925]"
units_of_measure = "%"
result = 45

[[record]]
substance = "416838 (antisense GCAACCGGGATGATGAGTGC; 5-10-5 gapmer, further chemistry not given here) [compound 416838]"
units_of_measure = "%"
result = 50


For each of the substances below, note its percent inhibition of human Factor 11 mRNA relative to untreated control cells.
1. 416858 (antisense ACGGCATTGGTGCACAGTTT; 5-10-5 gapmer, further chemistry not given here) [compound 416858]
2. 417003 (antisense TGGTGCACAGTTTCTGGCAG; 2-13-5 gapmer chemistry, further chemistry not given here) [compound 417003]
3. 416999 (antisense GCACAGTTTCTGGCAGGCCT; 2-13-5 gapmer chemistry, further chemistry not given here) [compound 416999]

Result:
46
48
42

For each of the substances below, note its percent inhibition of human Factor 11 mRNA relative to untreated control cells.
1. 417002 (antisense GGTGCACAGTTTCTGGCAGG; 2-13-5 gapmer chemistry, further chemistry not given here) [compound 417002]
2. 416826 (antisense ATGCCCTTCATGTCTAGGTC; 5-10-5 gapmer, further chemistry not given here) [compound 416826]
3. 416850 (antisense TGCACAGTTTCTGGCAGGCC; 5-10-5 gapmer, further chemistry not given here) [compound 416850]

Result:
1. 49
2. 32
3. 49

* * *

System: fibrinogen
Test: Fibrinogen assay (Example 45)
Format: in vivo, cynomolgus monkeys
Settings: plasma; day 22; escalating dose regimen
Method: Groups, each consisting of two male and three female monkeys, were injected subcutaneously with ISIS 416838, ISIS 416850, ISIS 416858, ISIS 416864, or ISIS 417002 in escalating doses. […] Body weights were measured weekly. […] Nine parts of fresh monkey plasma was collected into one part of trisodium citrate. The samples were evaluated of fibrinogen content using an ACL 9000 coagulation instrument (Instrumentation Laboratory, Italy). […]
What fibrinogen levels was measured for each of the following?
One number for each entry, in mg/dL.

A selection of reference data follows.
[[record]]
substance = "ISIS 417002: MOE gapmer, nucleobases 1275 to 1318 of SEQ ID NO: 1 (Table 8) (antisense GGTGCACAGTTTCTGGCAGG; MOE gapmer, wing and gap sizes not given here)"
recorded_endpoint = "fibrinogen levels"
result = 199

[[record]]
substance = "ISIS 416864: MOE gapmer, nucleobases 1275 to 1318 of SEQ ID NO: 1 (Table 8) (antisense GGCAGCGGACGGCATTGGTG; MOE gapmer, wing and gap sizes not given here)"
recorded_endpoint = "fibrinogen levels"
result = 184


Could you now consider this next substance?
Problem: I'd like to know its fibrinogen levels. The substance in question is ISIS 416838: MOE gapmer, nucleobases 1018 to 1042 of SEQ ID NO: 1 (Table 6) (antisense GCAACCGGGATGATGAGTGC; MOE gapmer, wing and gap sizes not given here)
Result: 183

* * *

What Bilirubin was measured for each of the following?
Experiment: Liver function, ALT, AST, bilirubin in cynomolgus monkeys (Example 46)
Assay type: in vivo
Conditions: Day 55; plasma
Strand notation (5' to 3'): a small letter for the sugar, then the base; units joined by * are phosphorothioate-linked, units joined directly phosphodiester-linked; [ ] holds rarer units or linkages, { } end groups; capitals alone tell only the bases. e = 2'-O-(2-methoxyethyl) (MOE); [5mC] = 5-methylcytosine; d = 2'-deoxy (DNA)
Give the number first and the unit second.

A selection of reference data follows.
[[record]]
substance = "ISIS 416858: MOE gapmer, nucleobases 1275 to 1318 of SEQ ID NO: 1 (Table 8) (antisense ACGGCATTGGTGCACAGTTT; MOE gapmer, wing and gap sizes not given here)"
result = "0.16 mg/dL"

[[record]]
substance = "ISIS 449711: 3-8-3, 4-8-4, 2-10-2, 3-10-3 or 4-10-4 MOE microwalk gapmer (Table 46) (antisense eA*e[5mC]*dA*dG*dT*dT*dT*d[5mC]*dT*dG*dG*d[5mC]*eA*eG)"
result = "0.13 mg/dL"

[[record]]
substance = "ISIS 449708: 3-8-3, 4-8-4, 2-10-2, 3-10-3 or 4-10-4 MOE microwalk gapmer (Table 46) (antisense eA*e[5mC]*eA*dG*dT*dT*dT*d[5mC]*dT*dG*dG*e[5mC]*eA*eG)"
result = "0.14 mg/dL"

[[record]]
substance = "ISIS 449710: 3-8-3, 4-8-4, 2-10-2, 3-10-3 or 4-10-4 MOE microwalk gapmer (Table 46) (antisense e[5mC]*eA*e[5mC]*dA*dG*dT*dT*dT*d[5mC]*dT*dG*dG*d[5mC]*eA*eG*eG)"
result = "0.22 mg/dL"

[[record]]
substance = "ISIS 449709: 3-8-3, 4-8-4, 2-10-2, 3-10-3 or 4-10-4 MOE microwalk gapmer (Table 46) (antisense eG*e[5mC]*eA*e[5mC]*dA*dG*dT*dT*dT*d[5mC]*dT*dG*dG*d[5mC]*eA*eG*eG*e[5mC])"
result = "0.18 mg/dL"

[[record]]
substance = "ISIS 449707: 3-8-3, 4-8-4, 2-10-2, 3-10-3 or 4-10-4 MOE microwalk gapmer (Table 46) (antisense e[5mC]*eA*e[5mC]*eA*dG*dT*dT*dT*d[5mC]*dT*dG*dG*e[5mC]*eA*eG*eG)"
result = "0.16 mg/dL"

[[record]]
substance = "ISIS 445531: 5-8-5 or 6-8-6 MOE microwalk gapmer (Table 44) (antisense eG*eG*e[5mC]*eA*eT*dT*dG*dG*dT*dG*d[5mC]*dA*d[5mC]*eA*eG*eT*eT*eT)"
result = "0.11 mg/dL"

[[record]]
substance = "ISIS 416850: MOE gapmer, nucleobases 1275 to 1318 of SEQ ID NO: 1 (Table 8) (antisense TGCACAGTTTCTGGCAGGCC; MOE gapmer, wing and gap sizes not given here)"
result = "0.17 mg/dL"


Problem: I'd like to know its Bilirubin. The substance in question is ISIS 445522: 5-8-5 or 6-8-6 MOE microwalk gapmer (Table 44) (antisense eG*e[5mC]*eA*e[5mC]*eA*dG*dT*dT*dT*d[5mC]*dT*dG*dG*e[5mC]*eA*eG*eG*e[5mC])
Result: 0.18 mg/dL

* * *

System: human Factor 11 mRNA
Assay: Dose-dependent inhibition of human Factor 11 in HepG2 cells, electroporation 0.7-20 uM (Example 4)
Format: cell-based
Conditions: 0.7 μM, relative to untreated control cells
Strand notation (5' to 3'): a small letter for the sugar, then the base; units joined by * are phosphorothioate-linked, units joined directly phosphodiester-linked; [ ] holds rarer units or linkages, { } end groups; capitals alone tell only the bases. e = 2'-O-(2-methoxyethyl) (MOE); [5mC] = 5-methylcytosine; d = 2'-deoxy (DNA)
recorded.endpoint: percent inhibition of Factor 11 at 0.7 μM (%)
Numbers only, in %.

A selection of reference data follows.
[[record]]
substance = "416973 (antisense eT*eT*dA*dT*dG*d[5mC]*d[5mC]*d[5mC]*dT*dT*d[5mC]*dA*dT*dG*dT*e[5mC]*eT*eA*eG*eG) [compound 416973]"
assay_system = "human Factor 11 mRNA"
units_of_measure = "%"
result = 20

[[record]]
substance = "416924 (antisense eG*eT*eG*d[5mC]*dA*d[5mC]*dA*dG*dT*dT*dT*d[5mC]*dT*dG*dG*d[5mC]*dA*eG*eG*e[5mC]) [compound 416924]"
assay_system = "human Factor 11 mRNA"
units_of_measure = "%"
result = 22

[[record]]
substance = "416864 (antisense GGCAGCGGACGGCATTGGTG; 5-10-5 gapmer, further chemistry not given here) [compound 416864]"
assay_system = "human Factor 11 mRNA"
units_of_measure = "%"
result = 32

[[record]]
substance = "412203 (antisense eA*eA*eT*eG*eT*d[5mC]*dT*dT*dT*dG*dT*dT*dG*d[5mC]*dA*eA*eG*e[5mC]*eG*e[5mC]) [compound 412203]"
assay_system = "human Factor 11 mRNA"
units_of_measure = "%"
result = 11


For each of the substances below, note its percent inhibition of Factor 11 at 0.7 μM.
1. 416925 (antisense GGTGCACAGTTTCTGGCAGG; 3-14-3 gapmer chemistry, further chemistry not given here) [compound 416925]
2. 416827 (antisense eT*eA*eT*eG*e[5mC]*d[5mC]*d[5mC]*dT*dT*d[5mC]*dA*dT*dG*dT*d[5mC]*eT*eA*eG*eG*eT) [compound 416827]

Result:
1: 0; 2: 37
